experiment: Pharmacokinetic (PK) analysis of rat plasma; assay type: in vivo; conditions: Sprague-Dawley, po, 20 mg/kg, SD rats, single gavage, 20 mg/10 mL/kg
metric_name: Tmax (min)
Numbers only, in min.

Worked cases, Tmax given:
compound	Tmax [min]
CS(=O)(CCNc1nonc1/C(=N/O)Nc1ccc(F)c(Br)c1)=NS(=O)(=O)C1CC1 (stereo not drawn)	30
C[S@@](=O)(CCNc1nonc1/C(=N/O)Nc1ccc(F)c(Br)c1)=NS(=O)(=O)C1CC1	30
C[S@](=O)(CCNc1nonc1/C(=N/O)Nc1ccc(F)c(Br)c1)=NS(=O)(=O)C1CC1	30
NS(=O)(=O)NCCNc1nonc1C(=NO)Nc1ccc(F)c(Br)c1 [INCB-24360, Epacadostat, reference compound]	60
NC(=O)C(=O)NCCNc1nonc1/C(=N/O)Nc1ccc(F)c(Br)c1	30

QUERY: Tmax for CS(=O)(=O)N=S(C)(=O)CCNc1nonc1/C(=N/O)Nc1ccc(F)c(Br)c1 (stereo not drawn) ?
RESULT: 30

Origin of values: patent US20190040025A1
